Quick reference: hGIPR Potency, 1% HSA, EC50 [pM] of the listed items.
Biological target: T1, human GIP receptor (human, UniProt P48546 22-466)
T1 sequence (looked up): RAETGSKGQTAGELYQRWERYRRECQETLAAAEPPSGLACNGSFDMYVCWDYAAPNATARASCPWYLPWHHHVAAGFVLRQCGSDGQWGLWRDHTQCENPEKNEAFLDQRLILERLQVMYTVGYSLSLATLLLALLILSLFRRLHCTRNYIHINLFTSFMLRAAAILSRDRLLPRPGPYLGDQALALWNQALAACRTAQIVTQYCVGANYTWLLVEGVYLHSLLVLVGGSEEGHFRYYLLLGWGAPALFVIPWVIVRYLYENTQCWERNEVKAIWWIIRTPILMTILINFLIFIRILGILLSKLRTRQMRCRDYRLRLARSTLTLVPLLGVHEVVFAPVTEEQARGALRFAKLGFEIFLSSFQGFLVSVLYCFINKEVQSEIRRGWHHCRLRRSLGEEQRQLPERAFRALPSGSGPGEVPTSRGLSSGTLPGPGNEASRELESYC
Experiment: cell-based or functional assay
Numbered stars: 1 amine (or outer) side, 2 acyl side, 3 side chain; on linkers, the order of the positions; unused ones are H or OH. Square brackets hold non-standard residues; d marks the D form. Side chains are listed from the residue outwards. * marks the point of attachment. C18 diacid = O=C(O)CCCCCCCCCCCCCCCCC(=O)*; γGlu = O=C(O)[C@H](CCC(=O)[*:2])N[*:1]; Chem. 28 = not defined here; AEEA = NCCOCCOCC(=O)O; Aib = CC(C)(N)C(=O)O

{"columns": ["binder", "hGIPR Potency, 1% HSA, EC50 [pM] [pM]"],
 "data": [
  ["Compound 52 (reading uncertain) peptide: Y[Aib]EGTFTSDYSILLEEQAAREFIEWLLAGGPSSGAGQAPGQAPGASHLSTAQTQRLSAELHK(Chem. 28)LATLPRTETGSGSP-NH2", 6.79],
  ["Compound 81 (peptide) peptide: Y[Aib]EGTFTSDYSILLEEQAAREFIEWLLAGGPSSGEASHLSTAQTQRLSAELHRLATLPK([AEEA-AEEA-γGlu-C18 diacid])TETGSGSP-NH2", 15.8],
  ["Compound 111 (peptide) peptide: Y[Aib]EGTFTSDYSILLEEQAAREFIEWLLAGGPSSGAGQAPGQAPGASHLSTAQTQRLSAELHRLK([AEEA-AEEA-AEEA-γGlu-C18 diacid])TLPRTETGSGSP-NH2", 12.2],
  ["Compound 78 (peptide) peptide: H[Aib]HGTFTSDYSILLEEQAAREFIEWLLAGGPSSGAGQAPGQAPGASHLSTAQTQRLSAK([AEEA-AEEA-γGlu-C18 diacid])LHRLATLPRTETGSGSP-NH2", 10.4]
]}

The values you see were collected from patent US20260174875A1.
